- Experimental parameters: siRNA; further: test system not given here
HELM strings list units from the 5' end as sugar, base in round brackets, then linkage (d deoxyribose, r ribose, m 2'-O-methyl, p phosphodiester). Strings are as the collection lists them, not checked against the first reports. ss, as = sense and antisense strand; [lna] = locked nucleic acid (LNA)
Quantity kind: target mRNA knockdown (%)
Reply with just the number (in %).

Below, each entry is followed by its recorded target mRNA knockdown result.
Substance	Result unit	Measured result
RNA1{r(A)p.r(A)p.r(C)p.r(U)p.r(U)p.r(C)p.r(U)p.r(G)p.r(G)p.r(G)p.r(A)p.r(G)p.r(C)p.r(C)p.r(U)p.r(C)p.m(C)p.r(A)p.r(A)p.r(T)p.r(T)}|RNA2{r(U)p.r(U)p.r(G)p.r(G)p.r(A)p.r(G)p.r(G)p.r(C)p.r(U)p.r(C)p.r(C)p.m(C)p.r(A)p.r(G)p.r(A)p.r(A)p.r(G)p.r(U)p.r(U)p.r(T)p.r(T)}$$$RNA1{StrandType:ss}|RNA2{StrandType:as}$	%	73
RNA1{r(G)p.m(U)p.r(A)p.r(C)p.r(U)p.r(C)p.r(U)p.r(G)p.r(A)p.r(U)p.r(G)p.r(A)p.r(G)p.r(G)p.r(A)p.r(A)p.r(G)p.r(A)p.r(G)p.r(T)p.r(T)}|RNA2{r(C)p.r(U)p.r(C)p.r(U)p.r(U)p.r(C)p.r(C)p.r(U)p.r(C)p.r(A)p.r(U)p.r(C)p.r(A)p.r(G)p.r(A)p.r(G)p.r(U)p.r(A)p.r(C)p.r(T)p.r(T)}$$$RNA1{StrandType:ss}|RNA2{StrandType:as}$	%	69

q: Quickly give me recorded target mRNA knockdown for RNA1{[lna](T)p.r(G)p.r(A)p.r(G)p.r(A)p.r(G)p.r(A)p.r(A)p.r(A)p.r(G)p.r(C)p.r(A)p.r(C)p.r(A)p.r(G)p.r(A)p.r(A)p.r(A)p.r(A)p.[lna](T)p.[lna](T)}|RNA2{r(U)p.r(U)p.r(U)p.r(U)p.r(C)p.r(U)p.r(G)p.r(U)p.r(G)p.r(C)p.r(U)p.r(U)p.r(U)p.r(C)p.r(U)p.r(C)p.r(U)p.r(C)p.r(A)p.d(T)p.d(T)}$$$RNA1{StrandType:ss}|RNA2{StrandType:as}$
a: 70
